Tested on: P. falciparum female gametocytes
measurement-protocol: P. falciparum Dual Gamete Formation Assay (PfDGFA), female readout (Pfs25-positive female gametes)
Assay type: cell-based, Plasmodium falciparum NF54
condition-notes: PfDGFA, 24 h incubation with gametocytes before induction, female gamete readout; read-out: Female IC50
readout-name: IC50 (nM)

1. CCCOc1ccc(CCNCCCCNCCc2ccc(OCCC)c3ccccc23)c2ccccc12.CS(=O)(=O)O	1370
2. Nc1nc(N)c2c(ccc3[nH]c(-c4ccccc4Cl)nc32)n1	2320
3. CN(CCCNCc1ccc2ccccc2c1)CCCNCc1ccc2ccccc2c1.Cl	1050
4. CNC(=S)NN=C(C)c1ccccn1	270
5. FC(F)(F)c1ccc2[nH]c(-c3cccc(-c4ccc(CNCCN5CCNCC5)cc4)c3)nc2c1.O=C(O)C(F)(F)F	6650
6. CCN(CC)CCOc1ccc(C(O)(C#CC(O)(c2ccc(C)cc2)c2ccc(OCCN(CC)CC)cc2)c2ccc(C)cc2)cc1 (stereo not drawn)	4730

====

Reported Average inhibition male (%) values follow for various molecules
Tested on: P. falciparum male gametocytes
measurement-protocol: P. falciparum Dual Gamete Formation Assay (PfDGFA), male readout (exflagellation)
Assay type: cell-based, Plasmodium falciparum NF54
condition-notes: PfDGFA at 2µM, 24h preincubation with gametocytes; average of replicates
readout-name: Average inhibition male (%)

1) CCN(CC)CCOc1ccc(C(O)(C#CC(O)(c2ccc(C)cc2)c2ccc(OCCN(CC)CC)cc2)c2ccc(C)cc2)cc1 (stereo not drawn)	80.0%
2) COc1cc(NC(=O)c2sc(-c3ccc(Cl)cc3)cc2NC(=O)c2ccncc2)ccc1OCCN1CCCC1	74.1%
3) COc1cc(CNCCCCCCNCc2cc(OC)c3ccccc3c2OC)c(OC)c2ccccc12.CS(=O)(=O)O	85.1%
4) CCCOc1ccc2ccccc2c1CNCCCCCCNCc1c(OCCC)ccc2ccccc12.CS(=O)(=O)O	79.0%
5) COc1cc2nc(NCCCN3CCCCC3)nc(NCc3ccccc3)c2cc1OC	71.6%
6) CCOc1ccc2ccccc2c1CNCCCCCCNCc1c(OCC)ccc2ccccc12.CS(=O)(=O)O	87.1%
7) Cc1ccccc1OCC(O)CNC1CCC(NCC(O)COc2ccccc2C)CC1 (stereo not drawn)	76.7%
8) CCCCCCCCN1CCN(CCCCCCNc2c3ccccc3nc3ccccc23)CC1.Cl	63.5%
9) CCCCOc1c(CCNCCCCNCCc2cc(OC)c3ccccc3c2OCCCC)cc(OC)c2ccccc12.CS(=O)(=O)O	82.6%
10) CC(C)CNCc1ccc(-c2cccc(CN(CCN(C)C)C(=O)CCC3CCCC3)c2)cc1.O=C(O)C(F)(F)F	71.6%
11) COc1cc2nc(N3CCC(CNC(=O)c4ccc(-c5ccc(Cl)cc5)cc4)CC3)nc(N)c2cc1OC	79.1%
12) Fc1ccc2[nH]c(-c3ccc(-c4ccc(CN5CCC(CCN6CCCCC6)CC5)cc4)s3)nc2c1.O=C(O)C(F)(F)F	85.6%
13) CC(C#N)Cc1ccc(-c2cnc(N)c3cc(-c4ccnc(N)n4)ccc23)cc1 (stereo not drawn)	85.1%
14) C[C@H](Cc1ccc(OCCCCCOc2ccc(C[C@@H](C)NC[C@H](O)c3cccc(Cl)c3)cc2)cc1)NC[C@H](O)c1cccc(Cl)c1.Cl	65.6%
15) CCCCOc1c(CNCCCCCCNCc2ccc3ccccc3c2OCCCC)ccc2ccccc12.CS(=O)(=O)O	78.3%
16) CN1CCC(N2CCN(Cc3cccc(-c4ccc(-c5nc6cc(C(F)(F)F)ccc6[nH]5)cc4)c3)CC2)CC1.O=C(O)C(F)(F)F	86.6%
17) CCCN(CCC)CCCN(CCCN(CCC)CCC)c1cc(C)nc(Nc2ccc3cc(Br)ccc3c2)n1.Cl	65.9%
18) COc1ccc(CNC2CCN(C)CC2)cc1-c1cccc(S(=O)(=O)NCc2ccccc2)c1.O=C(O)C(F)(F)F	67.3%
19) CCc1c(CCNCCCCCCNC(C)Cc2ccc3c(c2CC)OCO3)ccc(OC)c1OC.Cl (stereo not drawn)	79.1%
20) N=C(NCC1CC1c1ccccc1)c1cccc(C(=N)NCC2CC2c2ccccc2)n1 (stereo not drawn)	66.3%
21) Nc1nc(N)c2c(ccc3c2ccn3Cc2ccc(-c3ccccc3)cc2)n1	70.1%
22) CCCCOc1ccc(CNCCCCCCNCc2ccc(OCCCC)c3ccccc23)c2ccccc12.CS(=O)(=O)O	88.9%
23) Br.CCCCc1ccc(CCNCCCCCCNCCc2ccc(O)c(O)c2)cc1	80.5%
24) O=C(CCC1CCCC1)N(Cc1ccc(-c2ccc(CNCCc3ccccc3)cc2)cc1)C1CCCNC1.O=C(O)C(F)(F)F (stereo not drawn)	71.0%

====

System: P. falciparum male gametocytes
measurement-protocol: P. falciparum Dual Gamete Formation Assay (PfDGFA), male readout (exflagellation)
Format: cell-based, Plasmodium falciparum NF54
condition-notes: 2µM, 24h preincubation with gametocytes prior to induction of gametogenesis; replicate R1
Procedure: […] The Pf DGFA was performed as described in Delves et al. 2016 [17]. […] Exflagellation was recorded by capturing 10 frames over 1 s under brightfield illumination using a x4 objective with a 1.5x zoom (effectively x6) attached to an automated Nikon Ti fluorescence microscope. […] The plates were then returned to the microscope and female gametes imaged at x6 using fluorescence microscopy. […]
readout-name: % inhibition male (individual replicates) R1 (%)

1) COc1cc(C(=O)NC2CCN(Cc3ccccc3)CC2)ccc1-c1nc2cc(Cl)c(Cl)cc2[nH]1	13.3
2) FC(F)(F)c1ccc2[nH]c(-c3ccc(-c4ccc(CNCCN5CCNCC5)cc4)s3)nc2c1.O=C(O)C(F)(F)F	46.6
3) CCN1CCC2(c3cccc(OC)c3)Cc3nc4ccccc4c(-c4ccccc4)c3CC2C1 (stereo not shown)	28.7
4) O=C(O)C(F)(F)F.O=S(=O)(NCCN1CCCC1)c1ccc(-c2cccc(CNC3Cc4ccccc4C3)c2)s1	10.5
5) NCCCNc1nccc(N2CCc3ncnc(Nc4ccc(OCc5cccc(F)c5)c(Cl)c4)c3C2)n1	-14.5
6) CN(C)CCNCc1ccc(-c2ccc3c(Nc4ccc(Cl)cc4F)ccnc3c2)o1	62.6
7) CCCCCCCN1CC[C@@H](CCCc2ccnc3ccc(OC)cc23)[C@@H](CCN)C1.O=C(O)C(=O)O	62.0
8) CCc1c(CCNCCCCCCNCc2ccc3c(c2CC)OCO3)ccc(OC)c1OC.Cl	42.2
9) COc1cc2ccccc2cc1OCCCN1CCN(CC(c2ccc(F)cc2)N2CCN(C(C)C)CC2)CC1.Cl (stereo not shown)	10.5
10) CC1(C)N=C(N)N=C(N)N1c1ccc(Oc2ccc(Cl)cc2)c(Cl)c1	6.1
11) c1cc(Cc2ccc(Nc3c4ccccc4nc4ccccc34)cc2)cc(Nc2c3ccccc3nc3ccccc23)c1	17.2
12) COc1ccc2nccc([C@H](O)CN3CCC(NCc4ccc5c(c4C)OCCO5)CC3)c2n1.Cl	-4.0
13) Br.C[C@@H](COc1ccc(-c2ccccc2)cc1)CON1C(N)=NC(N)=NC1(C)C	13.7
14) COc1cccc(-c2csc(C(=O)NCC3CCN(Cc4ccc(C(C)(C)C)cc4)C3)c2)c1.O=C(O)C(F)(F)F (stereo not shown)	23.9
15) COc1ccc(CNC2Cc3ccccc3C2)cc1-c1ccc(OC)c(S(=O)(=O)NCCN2CCCC2)c1.O=C(O)C(F)(F)F	-12.6
16) Cc1cccc2nc(-c3ccc(-c4cccc(CNC5CCN(C)CC5)c4)s3)[nH]c12.O=C(O)C(F)(F)F	48.5

====

Test system: P. falciparum female gametocytes
measurement-protocol: P. falciparum Dual Gamete Formation Assay (PfDGFA), female readout (Pfs25-positive female gametes)
Format: cell-based, Plasmodium falciparum NF54
condition-notes: PfDGFA at 2µM, 24h preincubation with gametocytes prior to induction of gametogenesis; replicate R3
# cutoff -20% applies to % inhibition female (individual replicates) R3; >= gives y, < gives n

1. Nc1nc(N)c2cc(CNc3ccc(Cl)c(Cl)c3)ccc2n1	y
2. CCCn1cc2c(ccc3nc(N)nc(N)c32)n1	n
3. Cl.NC1=NC(CCc2ccccc2)N(c2ccc(Cl)cc2)C(N)=N1 (stereo not drawn)	y
4. CS(=O)(=O)Cc1cccc(Nc2ncc(Cl)c(Nc3cccnc3C(N)=O)n2)c1.Cl	y
5. Cl.Nc1nc(N)c2c(ccc3c2cnn3S(=O)(=O)N2CCCC2)n1	n
6. COc1ccc2ncc(F)c(CCN3CCC(NCc4cc(F)c5c(c4)OCCO5)CC3)c2n1.Cl	n
7. CCOc1cc(Cc2cnc(N)nc2N)cc(OCC)c1O	y
8. [O-][S+]1c2ccccc2Sc2ccccc21	y
9. Cc1nc2nc(N)nc(N)c2c(C)c1Cc1cccc(C#N)c1.Cl	y
10. Cc1ccc(CON2C(N)=NC(N)=NC2(C)C)c(Cl)c1.Cc1ccc(CON2C(N)=NC(N)=NC2(C)C)cc1Cl	n
11. CC(=O)c1ccc(NC(=O)NNC(=O)c2ccc(CCN3CCC(c4nc(COCC(F)(F)F)c(-c5ccc(F)cc5)o4)CC3)cc2)cc1	n
12. Cc1ccc2nc(C)cc(N/N=C/c3ccc([N+](=O)[O-])cc3)c2c1	y
13. COc1cc2c(c(Cl)c1OC)CCN(C(=O)C(F)(F)F)CC2c1ccccc1 (stereo not drawn)	y
14. CC1(C)N=C(N)N=C(N)N1c1cccc(Cl)c1.Cl	n
